B1: Azoarcus group I ribozyme (parent)
chain: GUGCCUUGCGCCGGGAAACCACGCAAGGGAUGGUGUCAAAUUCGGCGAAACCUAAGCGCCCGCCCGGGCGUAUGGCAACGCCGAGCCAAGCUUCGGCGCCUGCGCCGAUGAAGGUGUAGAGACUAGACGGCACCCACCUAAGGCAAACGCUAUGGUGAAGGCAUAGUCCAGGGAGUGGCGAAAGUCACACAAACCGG

# Variants of: B1
# EXPERIMENT DESCRIPTION: reverse-splicing fitness (ratio to wild type); higher = more active; in vitro selection; Mg2+ level not given
Class membership depends on reverse-splicing fitness alone; the intervals are bin 1 (below 0.005), bin 2 (0.005 to below 0.009), bin 3 (0.009 or more)

Each variant maps to one class by reverse-splicing fitness. Which class for A111G A120C A145C C150U C169G U176C ?
bin 2

Each variant maps to one class by reverse-splicing fitness. Which class for C82G A111C A145C C150U C169A U176C ?
bin 3

Each variant maps to one class by reverse-splicing fitness. Which class for C82U A111G A120G A145C C150A C169G U176G ?
bin 1

Each variant maps to one class by reverse-splicing fitness. Which class for C82U A111G A120C C150U C169U U176C ?
bin 3

Each variant maps to one class by reverse-splicing fitness. Which class for C82U A111C A120G A145C C150G C169U U176G ?
bin 1

Each variant maps to one class by reverse-splicing fitness. Which class for A111G A120C A145G C169A ?
bin 3

Each variant maps to one class by reverse-splicing fitness. Which class for C82A A111U A120G C150G C169G U176A ?
bin 2

Each variant maps to one class by reverse-splicing fitness. Which class for C82A A111U A145U C150U C169G U176G ?
bin 2

Each variant maps to one class by reverse-splicing fitness. Which class for C82U A120U C169G U176A ?
bin 1

Each variant maps to one class by reverse-splicing fitness. Which class for C82A A120G A145C C169U U176A ?
bin 3

Each variant maps to one class by reverse-splicing fitness. Which class for A111U A120G C150A U176G ?
bin 2

Each variant maps to one class by reverse-splicing fitness. Which class for A111U A145U U176A ?
bin 3

Each variant maps to one class by reverse-splicing fitness. Which class for C82A A111U A145C C150U C169A U176A ?
bin 3

Each variant maps to one class by reverse-splicing fitness. Which class for C82U A120U A145U C169G U176A ?
bin 1

Each variant maps to one class by reverse-splicing fitness. Which class for C82A A111C A120G C150U U176G ?
bin 2

Each variant maps to one class by reverse-splicing fitness. Which class for C82A A111U C150U ?
bin 3

Each variant maps to one class by reverse-splicing fitness. Which class for C82A A120G A145U C150U C169G U176G ?
bin 1

Each variant maps to one class by reverse-splicing fitness. Which class for C82U A120C A145C C150U C169A U176A ?
bin 2

Each variant maps to one class by reverse-splicing fitness. Which class for C82A A111G A120C A145C C169A ?
bin 2

Each variant maps to one class by reverse-splicing fitness. Which class for A111U A120U A145G C150A C169A U176G ?
bin 1

Each variant maps to one class by reverse-splicing fitness. Which class for C82G A111C A120U C169U U176A ?
bin 2

Each variant maps to one class by reverse-splicing fitness. Which class for C82U A120C C150U C169G U176G ?
bin 1

Each variant maps to one class by reverse-splicing fitness. Which class for C82A A111U A145U C150A C169G U176G ?
bin 2

Each variant maps to one class by reverse-splicing fitness. Which class for C82A A120G A145C C150U C169G U176G ?
bin 1

Each variant maps to one class by reverse-splicing fitness. Which class for C82G A111G A120G A145C C169G U176G ?
bin 1

Each variant maps to one class by reverse-splicing fitness. Which class for C82G A111G A120C C150A C169U ?
bin 3

Each variant maps to one class by reverse-splicing fitness. Which class for A120U A145U C150G C169U U176G ?
bin 1

Each variant maps to one class by reverse-splicing fitness. Which class for C82A A111C A145C C150A C169A U176A ?
bin 3

Each variant maps to one class by reverse-splicing fitness. Which class for C82G A111C A120C C150G C169A U176G ?
bin 2

Each variant maps to one class by reverse-splicing fitness. Which class for C82G A111C A120U A145U C150G C169A U176C ?
bin 1

Each variant maps to one class by reverse-splicing fitness. Which class for A120G A145C C150A C169G ?
bin 3

Each variant maps to one class by reverse-splicing fitness. Which class for C82G A145U C169G U176A ?
bin 3

Each variant maps to one class by reverse-splicing fitness. Which class for C82A A111C A120C C150U U176G ?
bin 2

Each variant maps to one class by reverse-splicing fitness. Which class for C82A A111G A120G A145C C150U C169U ?
bin 2

Each variant maps to one class by reverse-splicing fitness. Which class for C82G A111G A120G A145G C169U U176A ?
bin 3

Each variant maps to one class by reverse-splicing fitness. Which class for A111U C150G C169G U176A ?
bin 2

Each variant maps to one class by reverse-splicing fitness. Which class for A111U A120U A145G C150U ?
bin 3

Each variant maps to one class by reverse-splicing fitness. Which class for C82G C150A C169G ?
bin 3

Each variant maps to one class by reverse-splicing fitness. Which class for C82G A111C A145U C150U C169G U176A ?
bin 3

Each variant maps to one class by reverse-splicing fitness. Which class for C82U A111G A120C A145G C150G C169U U176G ?
bin 2

Each variant maps to one class by reverse-splicing fitness. Which class for A111G A120U A145C C150G C169A U176C ?
bin 1

Each variant maps to one class by reverse-splicing fitness. Which class for C82A A111C A120G A145G C169A U176C ?
bin 3

Each variant maps to one class by reverse-splicing fitness. Which class for A111G A120U C150A U176A ?
bin 3

Each variant maps to one class by reverse-splicing fitness. Which class for C82U A111U A120U C150U C169A U176G ?
bin 1

Each variant maps to one class by reverse-splicing fitness. Which class for C82A A111G A120U C150G C169G U176C ?
bin 1
